Biological target: recombinant (β15–66)2 fragment
Experiment: ELISA
VALUE TYPE: Kd (nM)
API: value field is a number in nM; no unit string.

Give the measured Kd of soluble form of human VLDL receptor, sVLDLRHT (from UniProt P98155 28-797) . 16.4
